- test_system: UniProt P33261
- Sequence (P33261 whole entry): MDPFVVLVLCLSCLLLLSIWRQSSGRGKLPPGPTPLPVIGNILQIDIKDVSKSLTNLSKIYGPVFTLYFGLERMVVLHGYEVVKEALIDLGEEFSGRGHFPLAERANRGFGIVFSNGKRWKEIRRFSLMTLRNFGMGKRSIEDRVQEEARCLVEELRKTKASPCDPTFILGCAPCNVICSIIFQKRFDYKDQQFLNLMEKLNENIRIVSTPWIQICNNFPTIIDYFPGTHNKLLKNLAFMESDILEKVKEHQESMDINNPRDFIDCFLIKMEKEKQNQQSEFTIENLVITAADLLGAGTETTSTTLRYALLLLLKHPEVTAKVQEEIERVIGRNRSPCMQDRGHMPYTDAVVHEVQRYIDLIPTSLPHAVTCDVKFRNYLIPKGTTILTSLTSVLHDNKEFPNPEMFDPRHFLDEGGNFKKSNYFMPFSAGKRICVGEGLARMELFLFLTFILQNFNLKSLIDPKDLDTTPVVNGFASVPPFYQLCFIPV
measured_parameter: pIC50
Give bare numbers, as −log10 of the molar value.

Q: Please list pIC50 recorded for the compound CC(C)(O)CCCC1(C)CC(=O)c2cc(O)c(Br)cc2O1 (stereo unspecified)
A: 7.10

----------
- test_system: Cytochrome P450 1A1 (Homo sapiens, UniProt P04798)
- Sequence (P04798 whole entry): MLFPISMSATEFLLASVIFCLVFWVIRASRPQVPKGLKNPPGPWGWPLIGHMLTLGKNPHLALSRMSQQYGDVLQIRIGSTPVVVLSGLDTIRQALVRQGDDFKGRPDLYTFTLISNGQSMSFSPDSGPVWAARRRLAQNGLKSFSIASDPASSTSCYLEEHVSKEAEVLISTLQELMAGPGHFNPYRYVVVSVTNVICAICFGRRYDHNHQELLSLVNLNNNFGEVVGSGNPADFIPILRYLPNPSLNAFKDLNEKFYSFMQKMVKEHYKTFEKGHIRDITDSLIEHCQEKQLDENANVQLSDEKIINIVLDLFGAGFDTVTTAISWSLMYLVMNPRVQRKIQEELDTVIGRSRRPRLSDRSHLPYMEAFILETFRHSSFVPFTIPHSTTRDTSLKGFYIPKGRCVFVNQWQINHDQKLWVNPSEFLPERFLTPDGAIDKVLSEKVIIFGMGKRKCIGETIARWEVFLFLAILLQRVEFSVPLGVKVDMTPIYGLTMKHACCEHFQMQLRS
measured_parameter: pIC50
Answers are plain numbers, as −log10 of the molar value.

Q: Give the reported value of pIC50 for this record: CC(C)(O)CCCC1(C)CC(=O)c2cc(O)c(Br)cc2O1 (stereo unspecified)
A: 6.41
